Data origin: ChEMBL document CHEMBL3739256

target.desc: UniProtKB Q7ZJM1
Sequence (Q7ZJM1 whole entry): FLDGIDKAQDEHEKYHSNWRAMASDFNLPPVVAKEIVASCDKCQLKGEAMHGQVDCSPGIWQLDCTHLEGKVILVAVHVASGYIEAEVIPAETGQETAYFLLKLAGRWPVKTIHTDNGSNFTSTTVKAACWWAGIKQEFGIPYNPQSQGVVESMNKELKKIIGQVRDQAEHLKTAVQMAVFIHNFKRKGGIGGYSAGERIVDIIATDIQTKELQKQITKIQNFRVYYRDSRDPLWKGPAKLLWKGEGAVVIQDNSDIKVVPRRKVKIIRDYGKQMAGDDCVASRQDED
protocol.notes: Inhibition of HIV-1 integrase strand transfer activity preincubated for 30 mins followed by addition of FITC-labelled dsDNA for 1 hr by microplate reader analysis
pIC50: −log10 of the molar value.
Where pIC50 equals or exceeds 5, the correct label is class 1; where it does not, the label is class 0.

| compound | target.desc | classification |
| --- | --- | --- |
| COc1ccc(C2=Cc3ccc(F)cc3C(CC(=O)CO)N2c2ccc([N+](=O)[O-])cc2)cc1 (centres undefined) | UniProtKB Q7ZJM1 | class 1 |
| COc1ccc(C2=Cc3ccc(F)cc3C(C[N+](=O)[O-])N2c2ccc(Cl)cc2)cc1 (centres undefined) | UniProtKB Q7ZJM1 | class 1 |
| COc1ccc(C2=Cc3ccc([N+](=O)[O-])cc3C(CC(C)=O)N2c2ccc(C#N)cc2)cc1 (centres undefined) | UniProtKB Q7ZJM1 | class 1 |
| COc1ccc(C2=Cc3ccc(F)cc3C(CC(=O)C(C)O)N2c2ccc(C#N)cc2)cc1 (centres undefined) | UniProtKB Q7ZJM1 | class 0 |
| COc1ccc(C2=Cc3ccc(F)cc3C(CC(=O)CO)N2c2ccc(C)cc2)cc1 (centres undefined) | UniProtKB Q7ZJM1 | class 0 |
| O=[N+]([O-])CC1c2cc([N+](=O)[O-])ccc2C=C(c2ccccc2)N1c1ccc(Cl)cc1 (centres undefined) | UniProtKB Q7ZJM1 | class 1 |
